Reference source for all entries: patent US4874759A

target: 5-lipoxygenase (Cavia porcellus); construct: supernatant fraction of intraperitoneal polymorph leukocyte of guinea pigs was prepared; experiment: 5-Lipoxygenase-inhibitory action (5-HETE production from arachidonic acid); conditions: 3.4 μM [1-14C] arachidonic acid, 105,000×g supernatant of guinea pig polymorph leukocyte, 30° C., 3 minutes; read-out: 50% inhibitory concentration against the production of 5-HETE
Sequence (A0A286X958 1-674): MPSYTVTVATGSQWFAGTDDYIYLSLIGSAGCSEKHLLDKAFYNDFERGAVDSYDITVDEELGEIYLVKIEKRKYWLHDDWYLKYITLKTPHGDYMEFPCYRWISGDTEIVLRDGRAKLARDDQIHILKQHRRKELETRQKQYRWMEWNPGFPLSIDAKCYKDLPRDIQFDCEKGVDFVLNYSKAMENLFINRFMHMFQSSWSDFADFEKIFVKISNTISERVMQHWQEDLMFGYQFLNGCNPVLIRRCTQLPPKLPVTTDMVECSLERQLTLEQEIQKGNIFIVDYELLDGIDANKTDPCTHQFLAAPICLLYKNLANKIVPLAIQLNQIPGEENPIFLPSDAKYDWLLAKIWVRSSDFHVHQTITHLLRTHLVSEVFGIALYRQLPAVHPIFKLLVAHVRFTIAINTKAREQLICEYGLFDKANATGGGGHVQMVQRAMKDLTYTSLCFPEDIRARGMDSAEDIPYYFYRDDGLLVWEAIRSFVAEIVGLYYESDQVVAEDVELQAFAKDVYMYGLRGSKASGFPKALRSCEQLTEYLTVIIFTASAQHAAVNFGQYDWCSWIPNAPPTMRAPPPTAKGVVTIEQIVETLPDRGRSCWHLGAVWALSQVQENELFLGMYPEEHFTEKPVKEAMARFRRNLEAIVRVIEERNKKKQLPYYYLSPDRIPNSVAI
pIC50: −log10 of the molar value.
Some compounds, each annotated with its measured pIC50.

- mol-smiles: "CCCCN(CCCC)C(=O)c1c(C)n(CCc2ccccc2)c2cc(C(=O)CC)c(O)c(CN3CCCCC3)c12"
  pIC50: 4.70
- mol-smiles: "CCCCN(CCCC)C(=O)c1c(C)n(-c2ccccc2)c2cc(C(=O)CC)c(O)c(CN3CCCCC3)c12"
  pIC50: 4.72

====

system: right vertebrartery; assay: Action on vertebrarterial blood flow (perfused right vertebral artery of anesthetized dog); format: in vivo, mongrel adult dog; details: into vertebral artery, maximum increase by 100 μg papaverine hydrochloride = 100%
This section presents molecules with their documented Vertebrarterial vasodilating action, ED100 values.
endpoint-name: Vertebrarterial vasodilating action, ED100 (µg)

- molecule: "CCCCNC(=O)c1c(C)n(CCCC)c2ccc(O)c(CN3CCCCC3)c12 [Compound (8)]"
  unit-descriptor: "µg"
  meas-value: 58
- molecule: "CCCCN(CCCC)C(=O)c1c(C)n(CCc2ccccc2)c2cc(C(=O)CC)c(O)c(CN3CCCCC3)c12 [Compound (4)]"
  unit-descriptor: "µg"
  meas-value: 63
- molecule: "CCCCCCn1c(C)c(C(=O)N(CCCC)CCCC)c2c(CN3CCCCC3)c(O)c(C(=O)CC)cc21 [Compound (6)]"
  unit-descriptor: "µg"
  meas-value: 48
- molecule: "CCCCN(CCCC)C(=O)c1c(C)n(-c2ccccc2)c2cc(C(=O)CC)c(O)c(CN3CCCCC3)c12 [Compound (25)]"
  unit-descriptor: "µg"
  meas-value: 76
